Overview of recorded In vitro activity (relative activity to SEQ ID NO: 1, %), cAMP assay, from EC50 for various binders
target: human glucagon receptor (human, UniProt P47871 26-477); assay: cell-based or functional assay
Sequence (P47871 26-477): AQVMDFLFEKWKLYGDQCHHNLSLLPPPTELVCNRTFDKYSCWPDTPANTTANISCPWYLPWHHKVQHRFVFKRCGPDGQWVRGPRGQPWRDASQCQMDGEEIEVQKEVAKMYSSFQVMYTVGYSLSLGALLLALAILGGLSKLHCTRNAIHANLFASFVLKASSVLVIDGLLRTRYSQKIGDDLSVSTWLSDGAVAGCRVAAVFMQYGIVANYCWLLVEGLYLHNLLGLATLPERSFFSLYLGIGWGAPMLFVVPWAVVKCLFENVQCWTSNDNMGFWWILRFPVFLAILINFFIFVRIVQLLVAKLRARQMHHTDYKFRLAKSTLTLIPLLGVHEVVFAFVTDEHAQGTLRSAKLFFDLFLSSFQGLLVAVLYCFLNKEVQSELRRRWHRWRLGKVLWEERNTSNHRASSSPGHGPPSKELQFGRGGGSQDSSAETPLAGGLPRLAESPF
Positions of bridges follow the written chain, without caps; N, C: chain ends. Non-standard residues stand in square brackets, D forms with d. No end group written: not given here. Aib = CC(C)(N)C(=O)O
API: value field is a number in %; no unit string.

The cases that follow already have their In vitro activity (relative activity to SEQ ID NO: 1, %), cAMP assay, from EC50 on record.
binder="Y[Aib]QGTFTSDCSKYLDERRAKEFVQWLMNT (lactam 16-20) [glucagon derivative of SEQ ID NO: 36]" unit_of_measure=% reported_value=9.9
binder="Y[Aib]QGTFTSDYSKYCDERRAKEFVQWLMNT (lactam 16-20) [glucagon derivative of SEQ ID NO: 35]" unit_of_measure=% reported_value=17.7
binder="Y[Aib]QGTFTSDYSKYLDEKCAKEFVQWLMNT (lactam 16-20) [glucagon derivative of SEQ ID NO: 21]" unit_of_measure=% reported_value=57.8

API: the following record is the query input.
## Task Quick one: In vitro activity (relative activity to SEQ ID NO: 1, %), cAMP assay, from EC50 for Y[Aib]QGTFTSDYSKYLDEKRAKCFVQWLMNT (lactam 16-20) [glucagon derivative of SEQ ID NO: 25] ?
## Result 46.9
